test system: expanded OPCs; assay: cells; settings: Rattus norvegicus, 72 h, read-out: 10 µM (% DMSO), alamarBlue viability, NCC library compound at 10 µM, sheet "All Tox data"
viability at 10 µM values by entry
Give your result in % as a bare value.

compound	reading unit	viability at 10 µM
CCCCNC(=O)NS(=O)(=O)c1ccc(C)cc1 [Tolbutamide]	%	117
O=c1c2ccccc2[se]n1-c1ccccc1 [Ebselen]	%	10.1
CCCCN1CCCCC1C(=O)Nc1c(C)cccc1C (centres unmarked) [Bupivacaine]	%	70.5
C[n+]1ccccc1/C=N/O [Pralidoxime]	%	89.1

Input line: Consider the compound shown here: CC1(C)O[C@@H]2C[C@H]3[C@@H]4CCC5=CC(=O)C=C[C@]5(C)[C@@]4(F)[C@@H](O)C[C@]3(C)[C@]2(C(=O)CO)O1 [Triamcinolone Acetonide] What is its recorded viability at 10 µM?
Output line: 127

---

system: expanded OPCs; test: cells; details: alamarBlue viability of expanded OPCs, compound at 1 µM, relative to DMSO control
Below is a list of entries, each paired with its recorded 1 µM (% DMSO) value.

See these solved cases before continuing.
compound	1 µM (% DMSO)
CCOC(=O)[C@H](CCc1ccccc1)N[C@@H](C)C(=O)N1Cc2ccccc2C[C@H]1C(=O)O [Quinapril]	90.0 % DMSO
CO[C@@]1(NC(=O)Cc2cccs2)C(=O)N2C(C(=O)O)=C(COC(N)=O)CS[C@@H]21 [Cefoxitin]	88.0 % DMSO

Now consider a different compound.
Input line: Fill in the blank: the reported 1 µM (% DMSO) of CCN1CCN(C(=O)N[C@@H](C(=O)N[C@@H]2C(=O)N3[C@@H]2SC(C)(C)[C@@H]3C(=O)O)c2ccccc2)C(=O)C1=O [Piperacillin] is ____.
Output line: 88.3 % DMSO

---

system: expanded OPCs; assay: cells; settings: Rattus norvegicus, 72 h, read-out: 1 µM (% DMSO), alamarBlue viability of expanded OPCs, compound at 1 µM, sheet All Tox data
Threshold 90%: viability at 1 µM strictly smaller gives yes (1), otherwise no (0).

compound	target or test system	classification
COc1ccc2c(c1)c(CC(=O)O)c(C)n2C(=O)c1ccc(Cl)cc1	expanded OPCs	yes (1)
CNCC[C@@H](Oc1ccccc1C)c1ccccc1	expanded OPCs	yes (1)
Cc1c(O)cccc1C(=O)N[C@@H](CSc1ccccc1)[C@H](O)CN1C[C@H]2CCCC[C@H]2C[C@H]1C(=O)NC(C)(C)C	expanded OPCs	yes (1)

Input line: Here's an entry: N[C@@H](C(=O)N[C@@H]1C(=O)N2C(C(=O)O)=C(CSc3c[nH]nn3)CS[C@H]12)c1ccc(O)cc1 . Is its viability at 1 µM below 90%?
Output line: no (0)

Input line: Same question, C[C@H]1CCC[C@H](O)CCCCCc2cc(O)cc(O)c2C(=O)O1 this time
Output line: yes (1)

Input line: // query: Clc1ccccc1CN1CCc2sccc2C1
Output line: no (0)

Input line: Repeat with Nc1nnc(-c2cccc(Cl)c2Cl)c(N)n1
Output line: no (0)

Input line: Continue with CCC(C)n1ncn(-c2ccc(N3CCN(c4ccc(OCC5COC(Cn6cncn6)(c6ccc(Cl)cc6Cl)O5)cc4)CC3)cc2)c1=O (stereo not drawn)
Output line: yes (1)
